Test system: A172 (Glioblastoma)
ASSAY: combination Emax (second highest fraction inhibited in the dose matrix, 72 h); higher = more inhibition; extreme values may be limits of the assay

[
  {
    "MOLECULE": "COc1cccc(OCCCN)c1-c1cc(Nc2cnc(C#N)cn2)n[nH]1 [Prexasertib] + CN(C)CCCOc1ccc(-c2ccc3ncc4c(c3c2)n(C2CCOCC2)c(=O)n4C)cn1 [AZD0156] (first compound max 1 µM, 7x7, partner max 1 µM)",
    "combination Emax": 0.699
  },
  {
    "MOLECULE": "COc1cccc(OCCCN)c1-c1cc(Nc2cnc(C#N)cn2)n[nH]1 [Prexasertib] + CCc1c2c(nc3ccc(O)cc13)-c1cc3c(c(=O)n1C2)COC(=O)[C@]3(O)CC [SN-38] (first compound max 1 µM, 7x7, partner max 0.3 µM)",
    "combination Emax": 0.751
  }
]

###

Test system: HCC-827 (Lung Adenocarcinoma)
ASSAY: Bliss excess, mean over the matrix (fraction); higher = more synergy
Recorded Bliss excess values for a group of compounds are listed next.
MEASURED ENDPOINT: Bliss excess

[
  {
    "COMPOUND": "CN(C)CCCOc1ccc(-c2ccc3ncc4c(c3c2)n(C2CCOCC2)c(=O)n4C)cn1 [AZD0156] + C[C@@H]1COCCN1C2=NC(=NC(=C2)C3(CC3)[S@](=N)(=O)C)C4=C5C=CNC5=NC=C4 [AZD6738] (first compound max 1 µM, 7x7, partner max 10 µM)",
    "TARGET ENTITY": "HCC-827 (Lung Adenocarcinoma)",
    "MEASURED ENDPOINT": "Bliss excess",
    "RECORDED VALUE": -0.003
  },
  {
    "COMPOUND": "Cc1c2c(nn1C)CSCc1cc(n(C)n1)CSc1cc(c3ccccc3c1)OCCCc1c(C(=O)O)n(C)c3c-2c(Cl)ccc13 [AZD5991] + CC1(C)CCC(CN2CCN(c3ccc(C(=O)NS(=O)(=O)c4ccc(NCC5CCOCC5)c([N+](=O)[O-])c4)c(Oc4cnc5[nH]ccc5c4)c3)CC2)=C(c2ccc(Cl)cc2)C1 [Venetoclax] (first compound max 1 µM, 7x7, partner max 1 µM)",
    "TARGET ENTITY": "HCC-827 (Lung Adenocarcinoma)",
    "MEASURED ENDPOINT": "Bliss excess",
    "RECORDED VALUE": -0.0269
  },
  {
    "COMPOUND": "CN(CCO)CC[C@H](CSc1ccccc1)Nc1ccc(S(=O)(=O)NC(=O)c2ccc(N3CCC([C@@H](O)c4ccccc4-c4ccc(Cl)cc4)CC3)cc2)cc1S(=O)(=O)C(F)(F)F [AZD4320] + Cn1cnc2c(F)c(Nc3ccc(Br)cc3Cl)c(C(=O)NOCCO)cc21 [Selumetinib] (first compound max 1 µM, 7x7, partner max 3 µM)",
    "TARGET ENTITY": "HCC-827 (Lung Adenocarcinoma)",
    "MEASURED ENDPOINT": "Bliss excess",
    "RECORDED VALUE": -0.0011
  }
]

###

System: CAL-39 (Other Solid Carcinomas)
ASSAY: combination Emax (second highest fraction inhibited in the dose matrix, 72 h); higher = more inhibition; extreme values may be limits of the assay
MEASURED ENDPOINT: combination Emax

[
  {
    "MOLECULE": "COc1cccc(OCCCN)c1-c1cc(Nc2cnc(C#N)cn2)n[nH]1 [Prexasertib] + CN(C)CCCOc1ccc(-c2ccc3ncc4c(c3c2)n(C2CCOCC2)c(=O)n4C)cn1 [AZD0156] (first compound max 1 µM, 7x7, partner max 1 µM)",
    "RECORDED VALUE": 0.258
  },
  {
    "MOLECULE": "NC1(C(=O)N[C@@H](CCO)c2ccc(Cl)cc2)CCN(c2ncnc3[nH]ccc23)CC1 [Capivasertib] + CC(=O)c1c(C)c2cnc(Nc3ccc(N4CCNCC4)cn3)nc2n(C2CCCC2)c1=O [Palbociclib] (first compound max 10 µM, 7x7, partner max 10 µM)",
    "RECORDED VALUE": 0.672
  },
  {
    "MOLECULE": "Cc1c2c(nn1C)CSCc1cc(n(C)n1)CSc1cc(c3ccccc3c1)OCCCc1c(C(=O)O)n(C)c3c-2c(Cl)ccc13 [AZD5991] + Nc1ccn([C@@H]2O[C@H](CO)[C@@H](O)C2(F)F)c(=O)n1 [Gemcitabine] (first compound max 1 µM, 7x7, partner max 0.3 µM)",
    "RECORDED VALUE": 0.899
  },
  {
    "MOLECULE": "COc1nnc2ccc(N3CCC(c4ccc(OCCN5CCN(C)C(=O)[C@H]5C)cc4)CC3)nn12 [AZD5153] + Cc1c2c(nn1C)CSCc1cc(n(C)n1)CSc1cc(c3ccccc3c1)OCCCc1c(C(=O)O)n(C)c3c-2c(Cl)ccc13 [AZD5991] (first compound max 1 µM, 7x7, partner max 1 µM)",
    "RECORDED VALUE": 0.905
  }
]

###

Tested on: SW48 (Colorectal Carcinoma)
ASSAY: Bliss excess, mean over the matrix (fraction); higher = more synergy
Form field: Bliss excess (one value per entry).

[
  {
    "COMPOUND": "Cc1c2c(nn1C)CSCc1cc(n(C)n1)CSc1cc(c3ccccc3c1)OCCCc1c(C(=O)O)n(C)c3c-2c(Cl)ccc13 [AZD5991] + CC(=O)O[C@H]1C(=O)[C@@]2(C)[C@H]([C@H](OC(=O)c3ccccc3)[C@]3(O)C[C@H](OC(=O)[C@H](O)[C@@H](NC(=O)c4ccccc4)c4ccccc4)C(C)=C1C3(C)C)[C@]1(OC(C)=O)CO[C@@H]1C[C@@H]2O [Paclitaxel] (first compound max 1 µM, 7x7, partner max 3 µM)",
    "Bliss excess": -0.0091
  },
  {
    "COMPOUND": "COc1nnc2ccc(N3CCC(c4ccc(OCCN5CCN(C)C(=O)[C@H]5C)cc4)CC3)nn12 [AZD5153] + C=CCn1c(=O)c2cnc(Nc3ccc(N4CCN(C)CC4)cc3)nc2n1-c1cccc(C(C)(C)O)n1 [AZD1775] (first compound max 1 µM, partner max 1 µM)",
    "Bliss excess": -0.0699
  },
  {
    "COMPOUND": "COc1nnc2ccc(N3CCC(c4ccc(OCCN5CCN(C)C(=O)[C@H]5C)cc4)CC3)nn12 [AZD5153] + CC1(C)CCC(CN2CCN(c3ccc(C(=O)NS(=O)(=O)c4ccc(NCC5CCOCC5)c([N+](=O)[O-])c4)c(Oc4cnc5[nH]ccc5c4)c3)CC2)=C(c2ccc(Cl)cc2)C1 [Venetoclax] (first compound max 1 µM, 7x7, partner max 1 µM)",
    "Bliss excess": -0.0081
  },
  {
    "COMPOUND": "Cc1c2c(nn1C)CSCc1cc(n(C)n1)CSc1cc(c3ccccc3c1)OCCCc1c(C(=O)O)n(C)c3c-2c(Cl)ccc13 [AZD5991] + CN(C)CCCOc1ccc(-c2ccc3ncc4c(c3c2)n(C2CCOCC2)c(=O)n4C)cn1 [AZD0156] (first compound max 1 µM, 7x7, partner max 1 µM)",
    "Bliss excess": 0.0051
  },
  {
    "COMPOUND": "Cc1c2c(nn1C)CSCc1cc(n(C)n1)CSc1cc(c3ccccc3c1)OCCCc1c(C(=O)O)n(C)c3c-2c(Cl)ccc13 [AZD5991] + C[C@@H](Nc1cc(F)cc(F)c1)c1cc(C(=O)N(C)C)cc2c(=O)cc(N3CCOCC3)oc12 [AZD8186] (first compound max 1 µM, 7x7, partner max 3 µM)",
    "Bliss excess": -0.0271
  },
  {
    "COMPOUND": "Cc1c2c(nn1C)CSCc1cc(n(C)n1)CSc1cc(c3ccccc3c1)OCCCc1c(C(=O)O)n(C)c3c-2c(Cl)ccc13 [AZD5991] + Nc1ccn([C@@H]2O[C@H](CO)[C@@H](O)C2(F)F)c(=O)n1 [Gemcitabine] (first compound max 1 µM, 7x7, partner max 0.3 µM)",
    "Bliss excess": -0.0377
  },
  {
    "COMPOUND": "NC1(C(=O)N[C@@H](CCO)c2ccc(Cl)cc2)CCN(c2ncnc3[nH]ccc23)CC1 [Capivasertib] + CCN(CCO)CCCOc1ccc2c(Nc3cc(CC(=O)Nc4cccc(F)c4)[nH]n3)ncnc2c1 [AZD2811] (first compound max 10 µM, 7x7, partner max 1 µM)",
    "Bliss excess": 0.0146
  },
  {
    "COMPOUND": "CN(CCO)CC[C@H](CSc1ccccc1)Nc1ccc(S(=O)(=O)NC(=O)c2ccc(N3CCC([C@@H](O)c4ccccc4-c4ccc(Cl)cc4)CC3)cc2)cc1S(=O)(=O)C(F)(F)F [AZD4320] + Cc1cc2ncnn2cc1Nc1ncc2c(n1)n(C1CCOCC1)c(=O)n2C [AZD7648] (first compound max 1 µM, 7x7, partner max 10 µM)",
    "Bliss excess": 0.0314
  },
  {
    "COMPOUND": "CC1(C)CCC(CN2CCN(c3ccc(C(=O)NS(=O)(=O)c4ccc(NCC5CCOCC5)c([N+](=O)[O-])c4)c(Oc4cnc5[nH]ccc5c4)c3)CC2)=C(c2ccc(Cl)cc2)C1 [Venetoclax] + C[C@@H](Nc1cc(F)cc(F)c1)c1cc(C(=O)N(C)C)cc2c(=O)cc(N3CCOCC3)oc12 [AZD8186] (first compound max 1 µM, 7x7, partner max 3 µM)",
    "Bliss excess": -0.0278
  },
  {
    "COMPOUND": "COc1cc2ncnc(Nc3ccc(F)c(Cl)c3)c2cc1OCCCN1CCOCC1 [Gefitinib] + CC(C)n1c(=O)n(C)c2cnc3cc(F)c(-c4ccc(OCCCN5CCCCC5)nc4)cc3c21 [AZD1390] (first compound max 10 µM, 7x7, partner max 0.3 µM)",
    "Bliss excess": -0.0516
  },
  {
    "COMPOUND": "CN(CCO)CC[C@H](CSc1ccccc1)Nc1ccc(S(=O)(=O)NC(=O)c2ccc(N3CCC([C@@H](O)c4ccccc4-c4ccc(Cl)cc4)CC3)cc2)cc1S(=O)(=O)C(F)(F)F [AZD4320] + CCN(CCO)CCCOc1ccc2c(Nc3cc(CC(=O)Nc4cccc(F)c4)[nH]n3)ncnc2c1 [AZD2811] (first compound max 1 µM, 7x7, partner max 1 µM)",
    "Bliss excess": -0.0226
  },
  {
    "COMPOUND": "N#Cc1cnc(Nc2cc(NC[C@H]3CNCCO3)c(C(F)(F)F)cn2)cn1 [SRA737] + Nc1ccn([C@@H]2O[C@H](CO)[C@@H](O)C2(F)F)c(=O)n1 [Gemcitabine] (first compound max 10 µM, 7x7, partner max 0.3 µM)",
    "Bliss excess": 0.0107
  },
  {
    "COMPOUND": "C=CCn1c(=O)c2cnc(Nc3ccc(N4CCN(C)CC4)cc3)nc2n1-c1cccc(C(C)(C)O)n1 [AZD1775] + Nc1ccn([C@@H]2O[C@H](CO)[C@@H](O)C2(F)F)c(=O)n1 [Gemcitabine] (first compound max 1 µM, partner max 0.3 µM)",
    "Bliss excess": 0.0828
  }
]
